Would you mind telling me the reported Kd of each entry?
target: T1, AFP158/HLA-A*02:01 complex (human); assay: SPR, crude scFv captured;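 further: Peptide–MHC complex flowed at several concentrations over sensorchip-captured scFv, Kd derived from on- and off-rates obtained from the association and dissociation curves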
T1 construct: biotinylated on the BSP by BirA for ELISA and panning; also called biotinylated AFP158/HLA-A*02:01 complex; Bio-AFP158
# output: bare number, implied unit nM

Request: Given AS170036 VL1VH1 HG108Y (scFv) scFv: QSALTQPRSVSGSPGQSVTISCAGTSSDVGSENYVSWYQQHPGKAPKLMIYQVNKRASGVPDRFSGSKSGNTASLTISGLQAEDEADYYCASYRSSDHNIVFGGGTKLTVLGGGGSGGGGSGGGGSEVQLVESGGGLVQPGGSLRLSCAASGFTFSSYAMSWVRQAPGKGLEWVSTINSGTGSPYYADSVKGRFTISRDNSKNTLYLQMNSLRAEDTAVYYCAKNFFDGSWFLYPPAMDYWGQGTLVTVSSHHHHHH , respond with its Kd.
Response: 1100

Request: Given AS170036 VL1VH1 HD102N (scFv) scFv: QSALTQPRSVSGSPGQSVTISCAGTSSDVGSENYVSWYQQHPGKAPKLMIYQVNKRASGVPDRFSGSKSGNTASLTISGLQAEDEADYYCASYRSSDHNIVFGGGTKLTVLGGGGSGGGGSGGGGSEVQLVESGGGLVQPGGSLRLSCAASGFTFSSYAMSWVRQAPGKGLEWVSTINSGTGSPYYADSVKGRFTISRDNSKNTLYLQMNSLRAEDTAVYYCAKNFFNGSWFLGPPAMDYWGQGTLVTVSSHHHHHH , respond with its Kd.
Response: 2500
